Data credit: patent US20210347727A1

# Tested on: calpain activity in SH-SY5Y cells
# TEST: SH-SY5Y cellular calpain activity, Suc-LLVY-AMC fluorescence assay
# Assay type: cell-based
# CONDITION SUMMARY: Suc-LLVY-AMC substrate
pIC50: −log10 of the molar value.
TEST READOUT: pIC50

Please review the following examples before continuing.
NC(=O)C(=O)[C@H](Cc1ccccc1)NC(=O)c1cc(F)c(Cl)cc1Cl ... > 5.00
NC(=O)C(=O)C(Cc1ccccc1)NC(=O)n1c2ccccc2c2ccccc21 (stereo not shown) ... < 4.60
Cc1ccc(F)c(C(=O)NC(C=O)Cc2ccccc2)c1Cl (stereo not shown) ... > 5.00

## Input Given the entry NC(=O)C(=O)C(Cc1ccccc1)NC(=O)c1cccc(F)c1 (stereo not shown) , what pIC50 was observed with calpain activity in SH-SY5Y cells?
## Output > 5.00

###

# Tested on: calpain activity in SH-SY5Y cells (Spectrin)
# TEST: SH-SY5Y Spectrin cellular calpain inhibition
# Type: cell-based
Form field: IC50 (one value per entry).

Please review the following examples before continuing.
NC(=O)C(=O)[C@H](Cc1ccccc1)NC(=O)c1c(F)cccc1I ... 10 to 25 µM
NC(=O)C(=O)C(Cc1ccccc1)NC(=O)c1cccc2c1Oc1ccccc1O2 (stereo not drawn) ... 10 to 25 µM
COc1ccc(Cl)cc1C(=O)NC(C=O)Cc1ccccc1 (stereo not drawn) ... > 25 µM

## Input Find the recorded IC50 belonging to O=CC(Cc1ccccc1)NC(=O)c1c(Cl)cccc1Br (stereo not drawn) and report it.
## Output 10 to 25 µM

## Input Find the recorded IC50 belonging to NC(=O)C(=O)C(Cc1ccccc1)NC(=O)c1ccc2c(c1)OCO2 (stereo not drawn) and report it.
## Output > 25 µM

## Input Find the recorded IC50 belonging to "COc1ccc(Br)cc1C(=O)N[C@@H](Cc1ccccc1)C(=O)C(N)=O" and report it.
## Output 10 to 25 µM

## Input Find the recorded IC50 belonging to "NC(=O)C(=O)[C@H](Cc1ccccc1)NC(=O)c1c(F)cc(F)cc1F" and report it.
## Output > 25 µM

## Input Find the recorded IC50 belonging to O=CC(Cc1ccccc1)NC(=O)c1c(F)cccc1F (stereo not drawn) and report it.
## Output 10 to 25 µM

## Input Find the recorded IC50 belonging to NC(=O)C(=O)C(Cc1ccccc1)NC(=O)c1cccc2c1oc1ccccc12 (stereo not drawn) and report it.
## Output > 25 µM

###

# TARGET OF ASSAY: Human Calpain 9/NS1 (Homo sapiens)
# Sequence (O14815 1-690): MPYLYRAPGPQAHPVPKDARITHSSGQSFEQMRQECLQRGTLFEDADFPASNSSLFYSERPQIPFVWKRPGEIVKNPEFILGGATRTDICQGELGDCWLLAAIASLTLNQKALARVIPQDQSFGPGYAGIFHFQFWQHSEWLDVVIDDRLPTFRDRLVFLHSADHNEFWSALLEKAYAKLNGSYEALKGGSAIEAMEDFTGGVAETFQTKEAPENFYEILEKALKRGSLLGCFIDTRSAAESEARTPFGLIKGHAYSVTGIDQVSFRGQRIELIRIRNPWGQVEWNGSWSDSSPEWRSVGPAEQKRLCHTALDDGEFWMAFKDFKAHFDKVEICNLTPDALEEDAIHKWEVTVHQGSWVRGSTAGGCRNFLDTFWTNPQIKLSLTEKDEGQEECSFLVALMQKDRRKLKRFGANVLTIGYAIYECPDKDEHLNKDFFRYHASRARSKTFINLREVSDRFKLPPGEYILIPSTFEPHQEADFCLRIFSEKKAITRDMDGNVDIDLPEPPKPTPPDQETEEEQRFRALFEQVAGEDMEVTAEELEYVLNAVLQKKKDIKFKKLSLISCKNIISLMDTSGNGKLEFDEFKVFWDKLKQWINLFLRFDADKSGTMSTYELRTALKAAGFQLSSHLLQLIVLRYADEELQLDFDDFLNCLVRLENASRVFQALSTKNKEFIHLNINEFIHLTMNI
# Sequence (P04632 1-268 partner): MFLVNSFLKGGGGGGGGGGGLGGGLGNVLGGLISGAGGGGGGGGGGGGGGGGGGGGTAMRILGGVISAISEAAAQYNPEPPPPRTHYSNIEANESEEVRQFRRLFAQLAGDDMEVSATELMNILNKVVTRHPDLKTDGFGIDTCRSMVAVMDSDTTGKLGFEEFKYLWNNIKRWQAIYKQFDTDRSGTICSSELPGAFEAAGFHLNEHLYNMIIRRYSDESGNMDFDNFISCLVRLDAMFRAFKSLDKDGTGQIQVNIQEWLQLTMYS
# TEST: Biochemical inhibition of calpain 9, continuous fluorescence (FRET substrate) assay
# CONDITION SUMMARY: mean; read-out: Human Calpain 9/NS1 IC50 (nM)_MEAN
TEST READOUT: IC50

## Input Find the recorded IC50 belonging to "NC(=O)C(=O)[C@H](Cc1ccccc1)NC(=O)c1c(Cl)cccc1Cl" and report it.
## Output < 3000 nM

## Input Find the recorded IC50 belonging to NC(=O)C(=O)C(Cc1ccccc1)NC(=O)C1c2ccccc2Oc2ccccc21 (stereo not drawn) and report it.
## Output < 3000 nM

## Input Find the recorded IC50 belonging to "NC(=O)C(=O)[C@H](Cc1ccccc1)NC(=O)c1c(C(F)(F)F)cccc1C(F)(F)F" and report it.
## Output < 3000 nM

###

Form field: IC50 (one value per entry).
# System: calpain activity in SH-SY5Y cells
# TEST: SH-SY5Y cellular calpain activity, Suc-LLVY-AMC fluorescence assay
# Assay type: cell-based
# CONDITION SUMMARY: Suc-LLVY-AMC substrate

NC(=O)C(=O)[C@H](Cc1ccccc1)NC(=O)c1cc(Br)ccc1Cl [Compound 34] ... < 10 µM
O=CC(Cc1ccccc1)NC(=O)c1c(F)cccc1F (centres unmarked) [Compound 40] ... > 25 µM
NC(=O)C(=O)[C@H](Cc1ccccc1)NC(=O)c1c(C(F)(F)F)ccc(Cl)c1F [Compound 32] ... < 10 µM
NC(=O)C(=O)[C@H](Cc1ccccc1)NC(=O)c1cc(Cl)ccc1Cl [Compound 22] ... < 10 µM

## Input Find the recorded IC50 belonging to NC(=O)C(=O)C(Cc1ccccc1)NC(=O)c1cccc2c1oc1ccccc12 (centres unmarked) [Compound 9] and report it.
## Output > 25 µM

###

# TARGET OF ASSAY: Human Calpain 1/NS1 (Homo sapiens, UniProt P07384)
# Sequence (P07384 whole entry, one chain of several): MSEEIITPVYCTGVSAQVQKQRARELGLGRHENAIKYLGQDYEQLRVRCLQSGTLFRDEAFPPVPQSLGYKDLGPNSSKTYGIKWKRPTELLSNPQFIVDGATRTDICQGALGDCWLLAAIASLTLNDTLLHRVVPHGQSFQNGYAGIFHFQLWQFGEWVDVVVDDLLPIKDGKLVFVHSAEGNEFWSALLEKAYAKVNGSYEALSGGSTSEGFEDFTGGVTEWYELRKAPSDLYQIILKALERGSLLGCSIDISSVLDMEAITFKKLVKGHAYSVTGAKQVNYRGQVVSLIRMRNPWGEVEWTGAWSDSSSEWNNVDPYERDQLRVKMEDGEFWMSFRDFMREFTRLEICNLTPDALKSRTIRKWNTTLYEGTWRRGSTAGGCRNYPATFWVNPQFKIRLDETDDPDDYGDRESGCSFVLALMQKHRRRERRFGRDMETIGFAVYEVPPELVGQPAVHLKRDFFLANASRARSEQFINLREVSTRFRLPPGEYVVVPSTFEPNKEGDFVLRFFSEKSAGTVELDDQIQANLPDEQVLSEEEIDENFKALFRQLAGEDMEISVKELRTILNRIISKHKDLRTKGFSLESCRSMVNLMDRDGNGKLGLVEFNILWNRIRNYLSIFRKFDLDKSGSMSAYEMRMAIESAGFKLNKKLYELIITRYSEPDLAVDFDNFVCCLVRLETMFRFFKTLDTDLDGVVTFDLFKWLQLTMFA
# TEST: Biochemical inhibition of calpain 1, continuous fluorescence (FRET substrate) assay
# CONDITION SUMMARY: mean; read-out: Human Calpain 1/NS1 IC50 (nM)_MEAN
Form field: IC50 (one value per entry).

Please review the following examples before continuing.
NC(=O)C(=O)C(Cc1ccccc1)NC(=O)C1c2ccccc2-c2ccccc21 (stereo not drawn) [Compound 10] ... > 10000 nM
O=CC(Cc1ccccc1)NC(=O)c1c(F)cccc1C(F)(F)F (stereo not drawn) [Compound 39] ... < 3000 nM
O=CC(Cc1ccccc1)NC(=O)c1c(Cl)cccc1Br (stereo not drawn) [Compound 41] ... 3000 to 10000 nM
Cn1c2ccccc2c2c(C(=O)NC(C=O)Cc3ccccc3)cccc21 (stereo not drawn) [Compound 47] ... < 3000 nM
NC(=O)C(=O)[C@H](Cc1ccccc1)NC(=O)c1c(Cl)cccc1Cl [Compound 1] ... < 3000 nM

## Input Find the recorded IC50 belonging to NC(=O)C(=O)[C@H](Cc1ccccc1)NC(=O)c1cc(Br)ccc1Cl [Compound 34] and report it.
## Output < 3000 nM

## Input Find the recorded IC50 belonging to NC(=O)C(=O)[C@H](Cc1ccccc1)NC(=O)c1ccc(-c2ccccc2)cc1 [Compound 23] and report it.
## Output < 3000 nM

## Input Find the recorded IC50 belonging to O=CC(Cc1ccccc1)NC(=O)c1c(Cl)cccc1Cl (stereo not drawn) [Compound 45] and report it.
## Output < 3000 nM

## Input Find the recorded IC50 belonging to COc1ccc(F)c(C(=O)NC(C=O)Cc2ccccc2)c1Cl (stereo not drawn) [Compound 43] and report it.
## Output < 3000 nM

## Input Find the recorded IC50 belonging to NC(=O)C(=O)[C@H](Cc1ccccc1)NC(=O)c1ccc(F)cc1 [Compound 28] and report it.
## Output > 10000 nM

## Input Find the recorded IC50 belonging to O=C(NC1CC1)C(=O)[C@H](Cc1ccccc1)NC(=O)c1c(Cl)cccc1Cl [Compound 2] and report it.
## Output < 3000 nM

## Input Find the recorded IC50 belonging to NC(=O)C(=O)[C@H](Cc1ccccc1)NC(=O)c1c(F)cc(F)cc1F [Compound 3] and report it.
## Output < 3000 nM

## Input Find the recorded IC50 belonging to NC(=O)C(=O)C(Cc1ccccc1)NC(=O)c1cccc2c1Oc1ccccc1O2 (stereo not drawn) [Compound 7] and report it.
## Output < 3000 nM

## Input Find the recorded IC50 belonging to O=CC(Cc1ccccc1)NC(=O)c1c(C(F)(F)F)ccc(Cl)c1F (stereo not drawn) [Compound 38] and report it.
## Output < 3000 nM

## Input Find the recorded IC50 belonging to NC(=O)C(=O)C(Cc1ccccc1)NC(=O)N1c2ccccc2Oc2ccccc21 (stereo not drawn) [Compound 6] and report it.
## Output < 3000 nM

## Input Find the recorded IC50 belonging to COc1ccc(Br)cc1C(=O)N[C@@H](Cc1ccccc1)C(=O)C(N)=O [Compound 35] and report it.
## Output < 3000 nM

## Input Find the recorded IC50 belonging to COc1cccc(OC)c1C(=O)N[C@@H](Cc1ccccc1)C(=O)C(N)=O [Compound 18] and report it.
## Output > 10000 nM

## Input Find the recorded IC50 belonging to Cc1ccc(F)c(C(=O)N[C@@H](Cc2ccccc2)C(=O)C(N)=O)c1Cl [Compound 30] and report it.
## Output < 3000 nM

## Input Find the recorded IC50 belonging to NC(=O)C(=O)[C@H](Cc1ccccc1)NC(=O)c1cc(Cl)ccc1Cl [Compound 22] and report it.
## Output < 3000 nM
